Measured values drawn from paper PMC7826789 for this set.

This listing pairs compounds with measured Percent Control.
- Test system: PIK3C2G
- condition-parameters: Compound Concentration (nM):1000;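 also: KINOMEscan scanMAX binding as percent activity remaining versus control; lower means stronger binding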

compound | Percent Control / %
COc1cc(C=NNc2ncnc3c2cnn3-c2ccccc2)ccc1O [GW513184X] | 100
CC1=C(C(=O)Nc2ccc3[nH]ncc3c2)C(c2ccc(Cl)c(Cl)c2)CC(=O)N1 (stereo not drawn) [GSK299115A] | 77
O=C1Nc2ccc(C(=O)c3ccco3)cc2C1=Cc1cc(Cl)c(O)c(Cl)c1 [GW406108X] | 39
NS(=O)(=O)c1ccc(N/N=C2\C(=O)Nc3ccc(-c4cnco4)cc32)cc1 [GW276655] | 96
COc1cc(C)c(N(C)C(=O)CN(C)C)cc1Nc1nc(Nc2cccc(F)c2C(N)=O)c2cc[nH]c2n1 [GSK2219385] | 92
O=C(Nc1n[nH]c2nc(-c3ccc(O)cc3)c(Br)cc12)C1CC1 [SB-725317] | 100

====

- Test system: STK35
- condition-parameters: Compound Concentration (nM):1000
Known Percent Control of a selection of compounds
measured-endpoint: Percent Control (%)

compound | measured-endpoint | unit-annotation | observed-result
COc1ccccc1-c1cc(/C=C2\C(=O)Nc3ncc(Br)cc32)cc(Br)c1O [GW442130X] | Percent Control | % | 100
C/C(Nc1ccc(S(N)(=O)=O)cc1)=C1/C(=O)Nc2ccccc21 [GW335962X] | Percent Control | % | 95
COc1ccc(COc2ccc(Cc3cnc(N)nc3N)cc2OC)cc1 [GW632580X] | Percent Control | % | 100
Cl.O=C(O[C@H]1CN[C@H](C#Cc2cc3ncnc(Nc4ccc5c(cnn5Cc5ccccc5)c4)c3s2)C1)N1CCOCC1 [GSK200398A] | Percent Control | % | 99
COc1cc2ncnc(Nc3ccc4c(cnn4Cc4ccccc4)c3)c2cc1OC.Cl [GW282449A] | Percent Control | % | 100
COc1cc(N2CCN(C(C)C)CC2)ccc1Nc1nc(Nc2ccc(F)cc2C(=O)NC[C@@H](O)CO)c2cc[nH]c2n1 [GSK1392956A] | Percent Control | % | 100
C[C@@H](Oc1cc(-n2cnc3ccc(OC4CCN(C)CC4)cc32)sc1C(N)=O)c1ccccc1Cl [GSK579289A] | Percent Control | % | 82
CCS(=O)(=O)c1ccc(OC)c(Nc2ncc(-c3cccc(OC)c3)o2)c1 [GW580509X] | Percent Control | % | 100
CC1=C(C(=O)Nc2ccc3[nH]ncc3c2)C(c2ccc(Cl)c(Cl)c2)CC(=O)N1 (stereo not shown) [GSK299115A] | Percent Control | % | 84
Cc1cc(O)cc(C)c1/C=C/c1cncc(C(N)=O)c1 [GW435821X] | Percent Control | % | 69
COc1cc(C)c(N(C)C(=O)CN(C)C)cc1Nc1nc(Nc2cccc(F)c2C(N)=O)c2cc[nH]c2n1 | Percent Control | % | 98
NS(=O)(=O)c1ccc(N/N=C2\C(=O)Nc3ccc(Cl)cc32)cc1 [GW280670X] | Percent Control | % | 100
Cl.O=S1CCN(Cc2ccc(-c3ccc4ncnc(Nc5ccc(OCc6ccccc6)c(F)c5)c4c3)o2)CC1 [GW576924A] | Percent Control | % | 100
COc1ccc2c(-c3ccnc(Nc4cccc(OC(F)(F)F)c4)n3)cnn2n1 [GW810372X] | Percent Control | % | 100
COc1cc(C=NNc2ncnc3c2cnn3-c2ccccc2)ccc1O [GW513184X] | Percent Control | % | 80
COc1ccc2cc(-c3c(-c4ccncc4)nc(-c4ccc(S(C)(=O)=O)cc4C)n3C)ccc2c1 | Percent Control | % | 57
NS(=O)(=O)c1ccc(N/N=C2\C(=O)Nc3ccc(-c4cnco4)cc32)cc1 | Percent Control | % | 99
CC1=C(C(=O)Nc2ccc3[nH]ncc3c2)C(c2ccc3ccccc3c2)CC(=O)N1 (stereo not shown) [GSK270822A] | Percent Control | % | 99
Cl.c1ccc(Cc2nc3ccc(Nc4ncnc5ccccc45)cc3[nH]2)cc1 [GR269666A] | Percent Control | % | 100

====

- System: KIT-autoinhibited
- condition-parameters: Compound Concentration (nM):1000
Listed below: Percent Control values for each entry.
measured-endpoint: Percent Control (%)

molecule | test-target | unit-annotation | observed-result
CC1=C(C(=O)Nc2ccc3[nH]ncc3c2)C(c2ccc3ccccc3c2)CC(=O)N1 (stereo not shown) [GSK270822A] | KIT-autoinhibited | % | 100
CCS(=O)(=O)c1ccc(OC)c(Nc2ncc(-c3cccc(F)c3)o2)c1 [GW621970X] | KIT-autoinhibited | % | 14
COc1ccc2cc(-c3c(-c4ccncc4)nc(-c4ccc(S(C)(=O)=O)cc4C)n3C)ccc2c1 | KIT-autoinhibited | % | 91
O=C(Nc1n[nH]c2nc(-c3ccc(O)cc3)c(Br)cc12)C1CC1 | KIT-autoinhibited | % | 86
Cl.c1ccc(Cc2nc3ccc(Nc4ncnc5ccccc45)cc3[nH]2)cc1 [GR269666A] | KIT-autoinhibited | % | 100
NS(=O)(=O)c1ccc(N/N=C2\C(=O)Nc3ccc(Cl)cc32)cc1 [GW280670X] | KIT-autoinhibited | % | 42
COc1cc(C)c(N(C)C(=O)CN(C)C)cc1Nc1nc(Nc2cccc(F)c2C(N)=O)c2cc[nH]c2n1 | KIT-autoinhibited | % | 100

====

- System: CHEK2
- condition-parameters: Compound Concentration (nM):1000
Reported values of Percent Control for individual entries

compound | test-target | Percent Control / %
COc1cccc(-n2ncc3c(N/N=C/c4ccncc4)ncnc32)c1 [GW784752X] | CHEK2 | 87
CN(C)c1cc2c(Nc3ccc4c(cnn4Cc4ccccc4)c3)ncnc2cn1 [GW282974X] | CHEK2 | 2.9
Cc1cc(O)cc(C)c1/C=C/c1cncc(C(N)=O)c1 [GW435821X] | CHEK2 | 99
NS(=O)(=O)c1ccc(Nc2ncc(-c3ccccc3)o2)cc1 [GW572399X] | CHEK2 | 100
C/C(Nc1ccc(S(N)(=O)=O)cc1)=C1/C(=O)Nc2ccccc21 [GW335962X] | CHEK2 | 51
CC1=C(C(=O)Nc2ccc3[nH]ncc3c2)C(c2ccc(Cl)c(Cl)c2)CC(=O)N1 (stereo not drawn) [GSK299115A] | CHEK2 | 100
Cl.O=C(Nc1ccc(Oc2ccc3[nH]c(NC(=O)c4ccco4)nc3c2)cc1)Nc1cc(C(F)(F)F)ccc1F [GW683134A] | CHEK2 | 97
COc1cc2ncnc(Nc3ccc4c(cnn4Cc4ccccc4)c3)c2cc1OC.Cl [GW282449A] | CHEK2 | 0
Cl.O=S1CCN(Cc2ccc(-c3ccc4ncnc(Nc5ccc(OCc6ccccc6)c(F)c5)c4c3)o2)CC1 [GW576924A] | CHEK2 | 99

====

- Tested on: MEK2
- Construct: gene MAP2K2
- condition-parameters: Compound Concentration (nM):1000
Classify: 1 when Percent Control is strictly less than 80%; -1 when Percent Control is not.

molecule | test-target | label-value
O=C1Nc2ccc(C(=O)c3ccco3)cc2C1=Cc1cc(Cl)c(O)c(Cl)c1 [GW406108X] | MEK2 | -1
Cl.O=C(Nc1ccc(Oc2ccc3[nH]c(NC(=O)c4ccco4)nc3c2)cc1)Nc1cc(C(F)(F)F)ccc1F [GW683134A] | MEK2 | -1
NS(=O)(=O)c1ccc(N/N=C2\C(=O)Nc3ccc(Cl)cc32)cc1 [GW280670X] | MEK2 | -1
CN(C)CCNC(=O)Nc1ccc(N(C)c2ccnc(Nc3ccc(CS(C)(=O)=O)cc3)n2)cc1.Cl [GW830900A] | MEK2 | 1
NS(=O)(=O)c1ccc(N/N=C2\C(=O)Nc3ccc(C(=O)NCCc4c[nH]cn4)cc32)cc1 [GW300660X] | MEK2 | -1

====

- Test system: DDR2
- condition-parameters: Compound Concentration (nM):1000
Reported Percent Control is given for each of the following molecules.
measured-endpoint: Percent Control (%)

molecule | unit-annotation | observed-result
NS(=O)(=O)c1ccc(N/N=C2\C(=O)Nc3ccc(C(=O)NCCc4c[nH]cn4)cc32)cc1 [GW300660X] | % | 100
CCS(=O)(=O)c1ccc(OC)c(Nc2ncc(-c3cccc(OC)c3)o2)c1 [GW580509X] | % | 100
COc1cc2ncn(-c3cc(O[C@H](C)c4ccccc4Cl)c(C(N)=O)s3)c2cc1OC [GSK237701A] | % | 74
Cc1cc(O)cc(C)c1/C=C/c1cncc(C(N)=O)c1 [GW435821X] | % | 74

====

- Tested on: PAK7
- condition-parameters: Compound Concentration (nM):1000

molecule | unit-annotation | Percent Control
O=C1Nc2ccc(C(=O)c3ccco3)cc2C1=Cc1cc(Cl)c(O)c(Cl)c1 [GW406108X] | % | 100
C[C@@H](Oc1cc(-n2cnc3ccc(OC4CCN(C)CC4)cc32)sc1C(N)=O)c1ccccc1Cl [GSK579289A] | % | 74
Nc1ncnc2occ(-c3ccc(NC(=O)Nc4cc(C(F)(F)F)ccc4F)cc3)c12 [GW770249X] | % | 100
COc1ccc2c(-c3ccnc(Nc4cccc(OC(F)(F)F)c4)n3)cnn2n1 [GW810372X] | % | 100
C/C(Nc1ccc(S(N)(=O)=O)cc1)=C1/C(=O)Nc2ccccc21 [GW335962X] | % | 100
Cl.O=C(Nc1ccc(Oc2ccc3[nH]c(NC(=O)c4ccccc4)nc3c2)cc1)Nc1cc(C(F)(F)F)ccc1F [GW709042A] | % | 100
